Answer each item with its documented ECL signal.
biological target: DR4G101: Human HLA-DRA1*01:02/DRB1*04:02 ECD with collagen II peptide CII_257-273 (human); test: MSD ECL; antigen coated; protocol of Example 3
Numbers only, in ECL.

Give the measured ECL signal of DR4B4 (antibody, V domains shown, also called Lym-1 re-engineered as IgG2sigma) VH: QVQLKESGPGLVAPSQSLSITCTISGFSLTSYGVHWVRQPPGKGLEWLVVIWSDGSTTYNSALKSRLSISKDNSKSQVFLKMNSLQTDDTAIYYCASHYGSTLAFASWGHGTLVTVSA VL: DIQMTQSPASLSASVGETVTIICRASVNIYSYLAWYQQKQGKSPQLLVYNAKILAEGVPSRFSGSGSGTQFSLKINSLQPEDFGSYYCQHHYGPFTFGSGTKLEIK . 639

More entries:
Give the measured ECL signal of DR4B5 (antibody, V domains shown, also called apolizumab (1D10) re-engineered as IgG2sigma) VH: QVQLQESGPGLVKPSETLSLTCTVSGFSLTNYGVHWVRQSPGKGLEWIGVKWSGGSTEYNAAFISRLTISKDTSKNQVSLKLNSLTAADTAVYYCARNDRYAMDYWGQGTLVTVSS VL: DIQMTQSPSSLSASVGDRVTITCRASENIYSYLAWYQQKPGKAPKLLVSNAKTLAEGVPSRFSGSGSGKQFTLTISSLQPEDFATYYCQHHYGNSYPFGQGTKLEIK . 723

Reference source for all entries: patent US20180355043A1
